- Test system: HeLa
- assay: Antiproliferative activity against human HeLa cells after 48 hrs by SRB assay
- Format: functional
measure name: GI50 (µM)

Study these solved cases before continuing.
Nc1nc(NCc2ccccc2)nc2c1[N+]([O-])=C(c1ccccc1)C2=O = 29
Nc1nc(NCCN2CCCC2)nc2c1[N+]([O-])=C(c1ccccc1)C2=O = 16
CCc1ccc(C2=[N+]([O-])c3c(N)ncnc3C2=O)cc1 = 75

P: Nc1nc(N2CCOCC2)nc2c1[N+]([O-])=C(c1ccccc1)C2=O
Q: CN(C)CCCNc1nc(N)c2c(n1)C(=O)C(c1ccccc1)=[N+]2[O-]
Between item P and item Q , which reported GI50 is smaller? Answer = label.
Q

1: CSc1nc(NCc2ccccc2)c2c(n1)C(=O)C(c1ccccc1)=[N+]2[O-]
2: COC(=O)CNc1nc(N)c2c(n1)C(=O)C(c1ccccc1)=[N+]2[O-]
3: Nc1nc(N2CCCCCC2)nc2c1[N+]([O-])=C(c1ccccc1)C2=O
List items by GI50 in falling order. Output spec: labels arranged per the requested ranking.
1, 2, 3

1: CCc1ccc(C2=[N+]([O-])c3c(N)nc(SC)nc3C2=O)cc1
2: C=CCNc1nc(N)c2c(n1)C(=O)C(c1ccccc1)=[N+]2[O-]
3: Nc1nc(NCCN2CCOCC2)nc2c1[N+]([O-])=C(c1ccccc1)C2=O
4: Nc1nc(N2CCCCC2)nc2c1[N+]([O-])=C(c1ccccc1)C2=O
Task for the reader: rank each entry by its GI50, from the minimum upward. # output: labels, in the requested order
4, 2, 3, 1

* * *

- Test system: WiDr
- assay: Antiproliferative activity against human WiDr cells after 48 hrs by SRB assay
- Format: functional
measure name: GI50 (µM)
Write it as a number; the unit µM goes unstated.

Some compounds with known GI50 results, for comparison:
CN(C)CCCNc1nc(N)c2c(n1)C(=O)C(c1ccccc1)=[N+]2[O-] = 19
CN1CCN(c2nc(N)c3c(n2)C(=O)C(c2ccccc2)=[N+]3[O-])CC1 = 46

API: the following record is the query input.
Find the measured GI50 of `Nc1nc(N2CCCCCC2)nc2c1[N+]([O-])=C(c1ccccc1)C2=O` and report it.
1.8

* * *

- Test system: WiDr
- assay: Antiproliferative activity against human WiDr cells after 48 hrs by SRB assay
- Type: functional
measure name: GI50 (µM)
The response must be a number in µM with no trailing unit.

// known answers, use as guide
CSc1nc(NCc2ccccc2)c2c(n1)C(=O)C(c1ccccc1)=[N+]2[O-] = 79
C=CCNc1nc(N)c2c(n1)C(=O)C(c1ccccc1)=[N+]2[O-] = 4.7
Nc1nc(NCCN2CCCC2)nc2c1[N+]([O-])=C(c1ccccc1)C2=O = 14
COC(=O)CNc1nc(N)c2c(n1)C(=O)C(c1ccccc1)=[N+]2[O-] = 18

Quickly give me recorded GI50 for `Nc1nc(N2CCOCC2)nc2c1[N+]([O-])=C(c1ccccc1)C2=O`
20
